- Tgt: eOD-GT8 (engineered outer domain germline-targeting version 8), monomer (HIV-1 gp120 engineered outer domain, …)

Binder	binding result
G001_gp1_V10_VRC01c_174 (antibody, V domains shown) VH: QVQLVQSGAEVKKPGATVKVSCKASGYTLTDYYMHWVRQAPGQGLEWMGWMNPNSGGTNYGRKFQGRVTMTRDTSINTAYMELSRLRSDDTAVYFCARAREKWPFDYWGQGTLVTVSS VL: DIQMTQSPASLSASVGDRVTITCQASQDISNYVNWYQQKPGKAPKLLINGASNLETGVPSRFSGSGSGTDFTFTISSLQPEDIATYYCQQYENFGPGTKVDIK	binds
G001_gp1_V10_VRC01c_2021-0119 (antibody, V domains shown) VH: QVQLVQSGAEVKRPGASVMVSCKASGYTFTNYYMHWVRQAPGQGLEWMGWINPSSGGTNYAQKFQDWVTMTRDTSISTVYMELNRLRFDDTAVYFCARAQSSGWFLDFWGQGTLVTVSS VL: DIQMTQSPSSLSASVGDRVTITCQASQGFTKYLNWYQQKLGKAPKLLIYDASNLETGVPSRFSGSASGTDFTFTISSLQPEDIATYYCQQYDLFGGGTKVEIR	binds
